System: CD2F1 mice, L1210 leukemia ip, survival T/C
Assay: NCI In Vivo Anticancer Drug Screen. Data for tumor model L1210 Leukemia (intraperitoneal) in CD2F1 (CDF1) mice
Conditions: endpoint: mean survival time; dose: 100.0 mg/kg/injection; schedule: Q04DX003 (ip); vehicle: saline with Tween-80; higher = longer survival
Inconclusive results and toxic doses are left out.
T/C values for the compounds below.
QUANTITY_MEASURED: T/C

{"COMPOUND": "Clc1ccc(CN2CN(Cc3ccc(Cl)cc3)CN(Cc3ccc(Cl)cc3)C2)cc1", "MEASURED": "100 % of control"}
{"COMPOUND": "O=C1NC(=O)C2=C1C1(Cl)C(Cl)=C(Cl)C2(Cl)C1(Cl)Cl", "MEASURED": "103 % of control"}
{"COMPOUND": "N#CCCc1c(O)ccc2ccccc12", "MEASURED": "86 % of control"}
{"COMPOUND": "CN(C)CCNC(=O)C(c1ccccc1)c1ccccc1", "MEASURED": "104 % of control"}
{"COMPOUND": "O=S(=O)(Cc1ccccc1)Cc1ccccc1", "MEASURED": "103 % of control"}
{"COMPOUND": "O=C(Nc1ccc(-c2cc(-c3ccccc3)on2)cc1)c1ccccc1", "MEASURED": "90 % of control"}
{"COMPOUND": "CC/C=C\\C/C=C\\C/C=C\\CCCCCCCC(=O)O", "MEASURED": "92 % of control"}
{"COMPOUND": "CCCCCCCCCCCCCCCC(=O)N1CCN(C)CC1", "MEASURED": "93 % of control"}
{"COMPOUND": "CC(C)(C)CC(C)(C)c1ccc(O)c(Cl)c1", "MEASURED": "96 % of control"}
{"COMPOUND": "CC(=O)Cc1ccc(C)cc1", "MEASURED": "97 % of control"}
{"COMPOUND": "O=S(=O)(CS(=O)(=O)Nc1ccccc1)Nc1ccccc1", "MEASURED": "109 % of control"}
{"COMPOUND": "COC(=O)Nc1ccc(NC(=O)c2cscn2)c(NC(=O)OC)n1", "MEASURED": "98 % of control"}
{"COMPOUND": "COc1ccc2c(c1)CCC1(C)C2=CC(=O)/C1=C\\[O-].COc1ccc2c(c1)CCC1(C)C2=CC(=O)/C1=C\\[O-].[Cu+2] (centres undefined)", "MEASURED": "86 % of control"}
{"COMPOUND": "O=C(Nc1ccccc1C(F)(F)F)Nc1cccc2ccccc12", "MEASURED": "95 % of control"}
{"COMPOUND": "NCCS/C=C/C(=O)Oc1ccc(Br)cc1", "MEASURED": "103 % of control"}
{"COMPOUND": "Nc1ccc2cc3ccccc3cc2c1", "MEASURED": "109 % of control"}
{"COMPOUND": "O=C(Nc1cccc(S(=O)(=O)F)c1)c1cccc([N+](=O)[O-])c1", "MEASURED": "105 % of control"}
{"COMPOUND": "CC(C)c1cc2c(cc1O)C1(C)CCCC(C)(C(=O)O)C1CC2 (centres undefined)", "MEASURED": "95 % of control"}
{"COMPOUND": "Cc1ccc([Si](OO[Si](c2ccccc2)(c2ccccc2)c2ccc(C)cc2)(c2ccccc2)c2ccccc2)cc1", "MEASURED": "98 % of control"}
{"COMPOUND": "O=C(Nc1ccc(CCO)cc1)Nc1ccc(F)c([N+](=O)[O-])c1", "MEASURED": "101 % of control"}
{"COMPOUND": "CC(CC=O)CCCC(C)(C)O (centres undefined)", "MEASURED": "103 % of control"}
{"COMPOUND": "COc1ccc(/C=C/C(CC(NO)c2ccc(OC)cc2)=N/O)cc1 (centres undefined)", "MEASURED": "95 % of control"}
{"COMPOUND": "COC1CC(O)C2OC(c3ccccc3)OCC2O1 (centres undefined)", "MEASURED": "104 % of control"}
{"COMPOUND": "Cc1ccc(N2CCN(CCCCCC(=O)O)CC2)cc1Cl", "MEASURED": "106 % of control"}
